Target: human FXR (NR1H4) (Homo sapiens, UniProt Q96RI1)
Sequence (Q96RI1 1-476 isoform Q96RI1-1): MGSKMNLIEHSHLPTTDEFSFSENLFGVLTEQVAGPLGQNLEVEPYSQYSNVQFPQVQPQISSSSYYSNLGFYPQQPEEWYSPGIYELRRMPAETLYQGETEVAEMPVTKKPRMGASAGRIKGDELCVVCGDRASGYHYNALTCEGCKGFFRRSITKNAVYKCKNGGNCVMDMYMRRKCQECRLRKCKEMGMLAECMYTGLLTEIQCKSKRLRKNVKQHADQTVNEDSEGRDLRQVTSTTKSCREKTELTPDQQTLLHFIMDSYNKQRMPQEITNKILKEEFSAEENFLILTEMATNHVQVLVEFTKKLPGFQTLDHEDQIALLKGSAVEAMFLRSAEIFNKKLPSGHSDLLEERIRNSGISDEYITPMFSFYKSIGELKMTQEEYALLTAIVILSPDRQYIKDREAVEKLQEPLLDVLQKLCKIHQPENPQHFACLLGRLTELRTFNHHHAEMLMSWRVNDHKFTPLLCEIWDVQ
Test: Human FXR (NR1H4) agonist assessment, FXRE-NanoLuc reporter in HEK293T cells
Type: cell-based
Conditions: FXR activation, HEK293T FXRE-NanoLuc reporter, 24 hr; read-out: EC50
METRIC NAME: EC50

Example cases with answers are listed next.
INSERT INTO measurements (smiles_record, metric_name, measured_result) VALUES
  ('CC[C@H]1[C@@H](O)[C@@H]2[C@H](CC[C@]3(C)[C@@H]([C@H](C)CCNC(=O)NS(=O)(=O)C4CCC(C)(C)CC4)CC[C@@H]23)[C@@]2(C)CCCC[C@@H]12', 'EC50', '< 1000 nM'),
  ('C[C@]12CC[C@@H](O)C[C@H]1CC[C@@H]1[C@@H]2C[C@H](O)[C@]2(C)[C@@H](CCCCCC(=O)O)CC[C@@H]12', 'EC50', '1000 to 10000 nM');

Next compound, EC50 to be filled in.
Kindly indicate its recorded EC50. Item: CC[C@H]1[C@@H](O)[C@@H]2[C@H](CC[C@]3(C)[C@@H]([C@H](C)CCNC(=O)NS(=O)(=O)c4cccc(Cl)c4)CC[C@@H]23)[C@@]2(C)CCCC[C@@H]12 < 1000 nM

* * *

Target: MRGPRX4 (Homo sapiens, UniProt Q96LA9)
Sequence (Q96LA9 whole entry): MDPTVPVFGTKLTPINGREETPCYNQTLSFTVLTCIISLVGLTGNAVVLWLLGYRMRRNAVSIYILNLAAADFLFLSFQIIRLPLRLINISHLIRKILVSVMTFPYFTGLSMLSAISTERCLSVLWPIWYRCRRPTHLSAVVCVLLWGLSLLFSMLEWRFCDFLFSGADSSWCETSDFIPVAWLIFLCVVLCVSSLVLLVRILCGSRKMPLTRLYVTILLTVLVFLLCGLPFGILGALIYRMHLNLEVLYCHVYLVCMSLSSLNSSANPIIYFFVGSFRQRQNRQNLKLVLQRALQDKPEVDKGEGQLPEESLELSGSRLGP
Test: MRGPRX4 activation, Fluo-8 Ca2+ FLIPR assay in HEK293T cells stably expressing MRGPRX4
Format: cell-based
Details: second E3-8-1, 3333 nM, n = 1
METRIC NAME: Activation (%)

Below are worked cases with known answers.
INSERT INTO measurements (smiles_record, metric_name, measured_result) VALUES
  ('CC[C@H]1[C@@H](O)[C@@H]2[C@H](CC[C@]3(C)[C@@H]([C@H](C)COC(=O)NS(=O)(=O)c4ccc5c(c4)CCC(C)(C)O5)CC[C@@H]23)[C@@]2(C)CCCC[C@@H]12', 'Activation (%)', '3.17%'),
  ('CC[C@H]1[C@@H](O)[C@@H]2[C@H](CC[C@]3(C)[C@@H]([C@H](C)COC(=O)NS(=O)(=O)c4ccc(N5CCCCC5)nc4)CC[C@@H]23)[C@@]2(C)CCCC[C@@H]12', 'Activation (%)', '3.17%'),
  ('CC[C@H]1[C@@H](O)[C@@H]2[C@H](CC[C@]3(C)[C@@H]([C@H](C)CNC(=O)NS(=O)(=O)c4ccc(N5CCCCC5)nc4)CC[C@@H]23)[C@@]2(C)CCCC[C@@H]12', 'Activation (%)', '2.55%');

Next:
Look up and report measured Activation (%) (MRGPRX4 (Homo sapiens, UniProt Q96LA9)) for the following compound: CC[C@H]1[C@@H](O)[C@@H]2[C@H](CC[C@]3(C)[C@@H]([C@H](C)COC(=O)NS(=O)(=O)c4ccc(C(C)(C)CF)cc4)CC[C@@H]23)[C@@]2(C)CCCC[C@@H]12 1.93%

* * *

For each entry below, report its MRGPRX4 activation, Average value.
Target: MRGPRX4 (Homo sapiens)
Experiment: MRGPRX4 activation, Fluo-8 Ca2+ FLIPR assay in HEK293T cells stably expressing MRGPRX4
Type: cell-based
Parameters: key: fluorescence change dF/F0
Details: E3-9, Conc. (Log[M]) −5.9
One number for each entry.

Example entries begin here.
INSERT INTO results (smiles_record, metric_name, measured_result) VALUES
  ('CC[C@H]1[C@@H](O)[C@@H]2[C@H](CC[C@]3(C)[C@@H]([C@H](C)CCNC(=O)NS(=O)(=O)c4cc(F)ccc4F)CC[C@@H]23)[C@@]2(C)CCC(F)(F)C[C@@H]12', 'MRGPRX4 activation, Average', 0.018),
  ('CC[C@H]1[C@@H](O)[C@@H]2[C@H](CC[C@]3(C)[C@@H]([C@H](C)COC(=O)NS(=O)(=O)c4ccc(N5CCCCC5)nc4)CC[C@@H]23)[C@@]2(C)CCCC[C@@H]12', 'MRGPRX4 activation, Average', 0.018),
  ('CC[C@H]1[C@@H](O)[C@@H]2[C@H](CC[C@]3(C)[C@@H]([C@H](C)CCNC(=O)C(=O)NS(=O)(=O)c4cc(F)ccc4F)CC[C@@H]23)[C@@]2(C)CCCC[C@@H]12', 'MRGPRX4 activation, Average', 0.018);

List the reported MRGPRX4 activation, Average of each compound below.
1. CC[C@H]1[C@@H](O)[C@@H]2[C@H](CC[C@]3(C)[C@@H]([C@H](C)CCNC(=S)NS(=O)(=O)c4cccs4)CC[C@@H]23)[C@@]2(C)CCC(F)(F)C[C@@H]12
2. CC[C@H]1[C@@H](O)[C@@H]2[C@H](CC[C@]3(C)[C@@H]([C@H](C)CCNC(=O)NS(=O)(=O)c4cc(F)cc(F)c4)CC[C@@H]23)[C@@]2(C)CCC(F)(F)C[C@@H]12

0.015
0.023

* * *

Molecular target: MRGPRX4 (Homo sapiens)
Experiment: MRGPRX4 activation, Fluo-8 Ca2+ FLIPR assay in HEK293T cells stably expressing MRGPRX4
Format: cell-based
Details: MRGPRX4 activation, Ca2+ fluorescence; read-out: Activity (EC50 μM), value in parentheses
METRIC NAME: EC50 (µM)
Answers are plain numbers, in µM.

Please give measured EC50 of the following entry: CC[C@H]1[C@@H](O)[C@@H]2[C@H](CC[C@]3(C)[C@@H]([C@H](C)CCC(=O)O)CC[C@@H]23)[C@@]2(C)CC[C@@H](O)C[C@@H]12 [OCA, obeticholic acid, reference compound] 37

* * *

Target: MRGPRX4 (Homo sapiens)
Test: MRGPRX4 activation, Fluo-8 Ca2+ FLIPR assay in HEK293T cells stably expressing MRGPRX4
Type: cell-based
Details: E3-9, Conc. (Log[M]) −7.3
METRIC NAME: MRGPRX4 activation, Average
Numbers only.

Below, each entry is followed by its recorded MRGPRX4 activation, Average result.
INSERT INTO results (smiles_record, metric_name, measured_result) VALUES
  ('[2H]C1([2H])CC[C@@]2(C)[C@@H](C1)[C@@H](CC)[C@@H](O)[C@@H]1[C@@H]2CC[C@]2(C)[C@@H]([C@H](C)CCNC(=S)NS(=O)(=O)c3cccs3)CC[C@@H]12', 'MRGPRX4 activation, Average', 0.015),
  ('CC[C@H]1[C@@H](O)[C@@H]2[C@H](CC[C@]3(C)[C@@H]([C@H](C)CCNC(=O)NS(=O)(=O)c4cc(F)cc(F)c4)CC[C@@H]23)[C@@]2(C)CC[C@H](F)C[C@@H]12', 'MRGPRX4 activation, Average', 0.018);

Value sought for every listed molecule: MRGPRX4 activation, Average.
1. CC[C@H]1[C@@H](O)[C@@H]2[C@H](CC[C@]3(C)[C@@H]([C@H](C)CCNS(=O)(=O)C[C@]45CC[C@H](CC4=O)C5(C)C)CC[C@@H]23)[C@@]2(C)CCCC[C@@H]12
2. CC[C@H]1[C@@H](O)[C@@H]2[C@H](CC[C@]3(C)[C@@H]([C@H](C)CCNC(=O)NS(=O)(=O)c4ccc(N5CCCCC5)nc4)CC[C@@H]23)[C@@]2(C)CCCC[C@@H]12
3. CC[C@H]1[C@@H](O)[C@@H]2[C@H](CC[C@]3(C)[C@@H]([C@H](C)CCNC(=O)NS(=O)(=O)c4ccc(C(C)(C)CF)cc4)CC[C@@H]23)[C@@]2(C)CCC(F)(F)C[C@@H]12

0.018
0.025
0.016

* * *

Biological target: MRGPRX4 (Homo sapiens, UniProt Q96LA9)
Experiment: MRGPRX4 activation, Fluo-8 Ca2+ FLIPR assay in HEK293T cells stably expressing MRGPRX4
Type: cell-based
Conditions: MRGPRX4 activation, Ca2+ fluorescence; no activation in tested range reported as III; read-out: Activity (EC50 μM)
METRIC NAME: EC50

The following molecules have reported results that may help.
INSERT INTO measurements (smiles_record, tgt, measured_result) VALUES
  ('CC[C@H]1[C@@H](O)[C@@H]2[C@H](CC[C@]3(C)[C@@H]([C@H](C)CCNC(=O)NS(=O)(=O)c4cccs4)CC[C@@H]23)[C@@]2(C)CCCC[C@@H]12', 'MRGPRX4 (Homo sapiens, UniProt Q96LA9)', '> 100 µM'),
  ('CC[C@H]1[C@@H](O)[C@@H]2[C@H](CC[C@]3(C)[C@@H]([C@H](C)CCNC(=O)NS(=O)(=O)c4ccc5c(c4)CCC(C)(C)O5)CC[C@@H]23)[C@@]2(C)CCCC[C@@H]12', 'MRGPRX4 (Homo sapiens, UniProt Q96LA9)', '> 100 µM'),
  ('CC[C@H]1[C@@H](O)[C@@H]2[C@H](CC[C@]3(C)[C@@H]([C@H](C)CCNS(=O)(=O)CC(C)C)CC[C@@H]23)[C@@]2(C)CCCC[C@@H]12', 'MRGPRX4 (Homo sapiens, UniProt Q96LA9)', '> 100 µM'),
  ('CC[C@H]1[C@@H](O)[C@@H]2[C@H](CC[C@]3(C)[C@@H]([C@H](C)CCC(=O)NS(=O)(=O)CC)CC[C@@H]23)[C@@]2(C)CCCC[C@@H]12', 'MRGPRX4 (Homo sapiens, UniProt Q96LA9)', '> 100 µM');

Then this molecule:
Identify measured EC50 corresponding to CC[C@H]1[C@@H](OC(=O)c2cccc(I)c2)[C@@H]2[C@H](CC[C@]3(C)[C@@H]([C@H](C)CCC(=O)OC)CC[C@@H]23)[C@@]2(C)CCCC[C@@H]12 50 to 100 µM
